- TESTED_TARGET: human BRS3 (Homo sapiens)
- Construct: expressed in transfected cells
- EXPERIMENT_NOTES: Aequorin bioluminescent assay to measure intracellular Ca++ (HEK293AEQ cells)
- Assay type: cell-based
- SETTINGS: Bombesin Subtype-3 Receptor agonism, method C; racemic mixture or the more potent enantiomer after HPLC separation; read-out: human BRS-3 EC50
EXPERIMENTAL_READOUT: EC50 (nM)

Known results for compounds:
COMPOUND	TESTED_TARGET	EC50 [nM]
CC(C)(C)c1ccc(S(=O)(=O)N2Cc3ccc(C(F)(F)F)nc3Nc3cccc(-c4noc(C(C)(C)O)n4)c32)cc1 (racemic) [Example 3]	human BRS3 (Homo sapiens)	63
CC(C)(C)c1ccc(S(=O)(=O)N2Cc3ccc(C(F)(F)F)nc3Nc3ccncc32)cc1 [Example 464]	human BRS3 (Homo sapiens)	196

[I] CC(C)(C(N)=O)c1cccc2c1N(S(=O)(=O)c1ccc(OC(F)(F)F)cc1)Cc1ccc(C(F)(F)F)nc1N2 [Example 533]
[II] CC(C)(O)c1nc(-c2cccc3c2N(S(=O)(=O)c2ccc(C(F)(F)F)cc2)Cc2ccc(C(F)(F)F)nc2N3)no1 (racemic) [Example 2]
## Task Higher EC50 between I and II ? # answer = label of selected item
## Result II
(II: 158 nM, I: 16 nM)

* * *

- TESTED_TARGET: human BRS3 (Homo sapiens, UniProt P32247)
- Construct: expressed in transfected cells
- EXPERIMENT_NOTES: [125I]-dY-peptide radioligand binding assay (filtration, membranes)
- SETTINGS: Bombesin Subtype-3 Receptor Binding, method A; racemic mixture or the more potent enantiomer after HPLC separation; read-out: human BRS-3 IC50
pIC50: −log10 of the molar value.
EXPERIMENTAL_READOUT: pIC50

COMPOUND	pIC50
CC(C)(C(N)=O)c1cccc2c1N(S(=O)(=O)c1ccc(OC(F)(F)F)cc1)Cc1ccc(C(F)(F)F)nc1N2	8.66

[I] CC(C)(O)c1nc(-c2cccc3c2N(S(=O)(=O)c2ccc(C(F)(F)F)cc2)Cc2ccc(C(F)(F)F)nc2N3)no1 (racemic)
[II] CC(C)(C)c1ccc(S(=O)(=O)N2Cc3ccc(C(F)(F)F)nc3Nc3cccc(-c4noc(CO)n4)c32)cc1 (racemic)
[III] CC(C)(C)c1ccc(S(=O)(=O)N2Cc3ccc(C(F)(F)F)nc3Nc3cccc(-c4noc(C(C)(C)O)n4)c32)cc1 (racemic)
## Task Arrange the 3 compounds by rising pIC50, starting with the smallest. The response must list the labels following the requested ordering.
## Result I, III, II
(I: 8.08, III: 8.72, II: 9.12)

* * *

- TESTED_TARGET: human BRS3 (Homo sapiens)
- Construct: expressed in transfected cells
- Sequence (P32247 1-399): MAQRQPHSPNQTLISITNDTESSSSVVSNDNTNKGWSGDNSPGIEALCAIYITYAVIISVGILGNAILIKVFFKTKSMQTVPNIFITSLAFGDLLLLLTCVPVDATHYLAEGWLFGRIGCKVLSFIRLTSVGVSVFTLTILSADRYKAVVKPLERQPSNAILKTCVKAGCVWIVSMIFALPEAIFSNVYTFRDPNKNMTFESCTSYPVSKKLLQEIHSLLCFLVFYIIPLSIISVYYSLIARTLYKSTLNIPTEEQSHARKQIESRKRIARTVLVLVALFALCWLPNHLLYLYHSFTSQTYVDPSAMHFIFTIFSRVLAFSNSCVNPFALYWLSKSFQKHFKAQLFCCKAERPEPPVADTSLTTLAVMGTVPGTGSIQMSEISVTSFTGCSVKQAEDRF
- EXPERIMENT_NOTES: [125I]-dY-peptide radioligand binding assay (filtration, membranes)
- SETTINGS: Bombesin Subtype-3 Receptor Binding, method A; racemic mixture or the more potent enantiomer after HPLC separation; read-out: human BRS-3 IC50
- Experimental: Dissociated cells were collected by centrifuging at 1000 rpm for 10 minutes. […] The filters were washed five times with ice-cold washing buffer (1×PBS without Mg^++ and Ca^++). The radioactivity was determined by adding 30 μl of microscintillant/well after each plate was dried at room temperature overnight or placed at 50° C. for 1 hr. A Packard Top Count was used to read the filter plates. […]
pIC50: −log10 of the molar value.
EXPERIMENTAL_READOUT: pIC50

As a guide, the following entries are already answered.
MOLECULE	TESTED_TARGET	MEASURED_NUMBER
CC(C)(C)c1ccc(S(=O)(=O)N2Cc3ccc(C(F)(F)F)nc3Nc3ccc(-c4noc(CO)n4)cc32)cc1 [Example 437]	human BRS3 (Homo sapiens)	8.39
Cc1ccc2c(n1)N(S(=O)(=O)c1ccc(C(C)(C)C)cc1)Cc1ccc(C(F)(F)F)nc1N2 [Example 536]	human BRS3 (Homo sapiens)	8.28
CC(C)(C)c1ccc(S(=O)(=O)N2Cc3ccc(C(F)(F)F)nc3Nc3ccncc32)cc1 [Example 464]	human BRS3 (Homo sapiens)	7.42
CC(C)(O)c1nc(-c2cccc3c2N(S(=O)(=O)c2ccc(C4(C(F)(F)F)CC4)cc2)Cc2ccc(C(F)(F)F)nc2N3)no1 (racemic) [Example 4]	human BRS3 (Homo sapiens)	8.48
O=S(=O)(c1ccc(C(F)(F)F)cc1)N1Cc2ccc(C(F)(F)F)nc2Nc2cccc(-c3noc(CO)n3)c21 (racemic) [Example 6]	human BRS3 (Homo sapiens)	8.19

[a] CC(C)(C)c1ccc(S(=O)(=O)N2Cc3ccc(C(F)(F)F)nc3Nc3ccc(C(C)(C)C(=O)O)cc32)cc1 [Example 374]
[b] O=S(=O)(c1ccc(OC(F)(F)F)cc1)N1Cc2ccc(C(F)(F)F)nc2Nc2cccc(-c3noc(CO)n3)c21 (racemic) [Example 7]
## Task From the recorded data, which exceeds the other in pIC50: a or b ? Return value: the label identifying the chosen record.
## Result b
(b: 8.54, a: 8.31)
